Reference source for all entries: the supplement of paper PMC8728848

study-system: GlcNAc6S(b1-3)Gal(b1-4)GlcNAc
experiment-summary: glycan array binding signal (z-score within array); higher = stronger binding
conditions: glycan notation: IUPAC condensed, linker removed
The full list was thinned out, with the strongest signals kept by preference.
quantity-name: glycan array binding signal (z-score)
Give bare numbers.

[
  {
    "binder": "LBL-152 (Laetiporus bicolor), B0D650 (protein) MSNEYNPPLGIAFRLCGLASDRVLFSRVSPSPEVFHHPKSEVYPDQWFVAIPGSGQNAGCYAIKSKNTGKVLFSRMSPDPRVGHIDGDGKYPDNWFKFEAGSGKYAGYFRLRAVASDTVLVSRTSTGTDTQVINYPATSAKYDDQYFTILFDHHHHHH",
    "glycan array binding signal (z-score)": -0.157
  },
  {
    "binder": "FGFR2-Fc (protein) MVNVTDAISSGDDEDDTDGAEDFVSENSNNKRAPYWTNTEKMEKRLHAVPAANTVKFRCPAGGNPMPTMRWLKNGKEFKQEHRIGGYKVRNQHWSLIMESVVPSDKGNYTCVVENEYGSINHTYHLDVVERSPHRPILQAGLPANASTVVGGDVEFVCKVYSDAQPHIQWIKHVEKNGSKYGPDGLPYLKVLKHSGINSSNAEVLALFNVTEADAGEYICKVSNYIGQANQSAWLTVLPKQQAPGREKEITASPDYLETRPLEQKLISEEDLAANDILDYKDDDDKV",
    "glycan array binding signal (z-score)": 0.175
  }
]

Give glycan array binding signal (z-score) for each listed item.
1. VLRB.aGPA.23-GCN4-biotin (Petromyzon marinus) (protein) ACPSQCSCSGTEVNCAGKSLASVPAGIPTTTRVLYLNSNQITKLEPGVFDRLANLRELHLWGNQLVSLPPGVFDNLANLEKLWLNSNQLTSLPAGLFDRLVNLEHLGLCCMKLTELPSGAFDKLTRLKQLGLDQNQLKSIPDGAFARLPSLTHVWLHTNPWDCQCTDILYLSGWVAQHSSIVGEGWPWRHSPDSAKCSGTNTPVRAVTEASTSPSKCP
2. PhypaEULS3 (Physcomitrella patens) (protein) MLPVRLHCKADPNFNLAAVPGQGPVMVPFSPNDDFQVWYKDVTMSTRVKDETGSSAFSLINKATGQALRHAPEDLAQCLLADYDSNALDQTVLWTMSEDMGQGYCCIRLASQITRNLDVFRGDKKSGGVKEGSPVITFAWKKQDNQIWKMITAILEQKLISEEDLNSAVDHHHHHH
3. CVN (Nostoc ellipsosporum), P81180 (protein) LGKFSQTCYNSAIQGSVLTSTCERTNGGYNTSSIDLNSVIENVDGSLKWQPSNFIETCRNTQLAGSSELAAECKTRAQQFVSTKINLDDHIANIDGTLKYE
4. AT1G73650(15) (Arabidopsis thaliana), F4HRY1 (protein) MGTVLDSHFLALTAIVTVIYQFIFFVITALFKFDQVTDFAGSTNFVILAVLTLVLKASWHFRQIVLTLLVVVWGLRLGIFLLMETRILQWGEDRRFDEQRGNIVRLIIFWTLQAVWVWTVSLPLTLVNASDGGGSLKPADVIGWTMETWVFGFLIEAAADQQKLSFKNSPENRGKWCDVGVWKYSRHPNYFGEMETLLWWGIFVAASPVLEGAEYLVIFGPLFLTLLLLFVSGIPLLEASADKKHGNSGAYRSYKKTTSPLILFPRGVYGNLPGWFKTVFLFEFPFYSRNLPQEGRLQNSKEKEVKDD
5. GNL (Galanthus nivalis) (protein) MGHHHHHHHHYGTLENGHWLMVGMSIFSKDRTVELRMQDDGKLAIYYNDHCAWQSTAQQVNNAKGAVMQGDGNFCIYDKNGKATWHTNTAAPSGDSHTFVSVQDDGNLVLYKNNGATPIWSSKSNK

1: -0.08; 2: 1.26; 3: -0.222; 4: -0.641; 5: -0.28
